- target.or.system: PglH (Campylobacter jejuni, UniProt Q0P9C5)
- Construct: PglH with C-terminal His10 tag
- Sequence (Q0P9C5 whole entry): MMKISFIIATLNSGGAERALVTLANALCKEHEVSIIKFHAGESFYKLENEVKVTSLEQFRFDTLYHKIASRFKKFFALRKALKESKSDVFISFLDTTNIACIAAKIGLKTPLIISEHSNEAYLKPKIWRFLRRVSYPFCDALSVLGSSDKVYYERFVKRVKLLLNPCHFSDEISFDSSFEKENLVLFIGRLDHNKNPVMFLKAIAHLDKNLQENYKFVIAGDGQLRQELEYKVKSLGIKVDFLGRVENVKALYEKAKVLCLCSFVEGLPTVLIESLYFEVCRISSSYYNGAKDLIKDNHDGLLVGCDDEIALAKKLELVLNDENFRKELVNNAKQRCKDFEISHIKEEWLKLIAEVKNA
- experiment.notes: crystal structure of ternary complex with synthetic LLO ([…] Å); IC50 with purified PglH
- Format: biochemical
recorded.metric: pIC50
Scale: pIC50 equals -log10([C]), with [C] in mol/L.

Form field - read-out: pIC50; system: PglH (Campylobacter jejuni, UniProt Q0P9C5); submitted item: `O=c1ccn([C@@H]2O[C@H](COP(=O)(O)OP(=O)(O)O)[C@@H](O)[C@H]2O)c(=O)[nH]1`
2.99

###

- target.or.system: PglH (Campylobacter jejuni)
- Construct: PglH with C-terminal His10 tag
- experiment.notes: ([…] Å); IC50 with purified PglH
- Format: biochemical
recorded.metric: pIC50
Scale: pIC50 equals -log10([C]), with [C] in mol/L.

Recorded pIC50 of `CC(=O)N[C@@H]1[C@@H](O)[C@@H](O)[C@@H](CO)O[C@@H]1CP(=O)(O)OP(=O)(O)OC[C@@H]1O[C@@H](n2ccc(=O)[nH]c2=O)[C@H](O)[C@@H]1O` , please.
3.52
